# assayInfo: 14C assay with IPTG-induced recombinant E. coli cells (14CO2 capture from [14C]-carboxyl-labeled dicamba)
# measurementContext: IPTG-induced recombinant E. coli cells; [14C]-carboxyl-labeled dicamba; 14CO2 capture

| molecule | Dicamba Decarboxylase Activity |
| --- | --- |
| 22 (protein, listed as Staphylococcus epidermidis) MAKSINFEEHYVVDDIQKETMKYMSSDPNGVPMQTMLKGLEQKSGFTNADDITKHDERIKFMDEHDVEMQVLSYGNGAPSNLEGERAIELCQQANDTLAKYVNEHPDRFVGFATLPINEPQAAVEEFKRCIKELGFKGALIMGHPKNGFLDQDQYDDLFATAEALNVPIYLHPSPVQSDVYQAYYKGNYSDVTAATFACFGYGWHVDVGIHAIHLVLSGVFDRHPNLNMIIGHWGEFVPFFLERMDDILFADHLEHPISYYFKNNFYITPSGMLTKPQFDLVKAEVGVDRILYSADYPYVEPDKLGTFLDELDLTEEEKEKISYKNGAKLLGLEK | High |
| 92 (protein, listed as Chitinophaga pinensis) MARIVTLEEHVSFPEMTALLPEEILKNRKQSGAALQMQEKLADITGERLTSMKAAGISMQVLSVENTDVYLLPDSLAPAFAAKYNDLLADKISSHSDAFAAFAMLPMTVPEAAADELERAVKTHGFCGAMIKGLINGVFLDAPKFAPVFACAEKLGVPLYIHPGIPPKEVIDAYYSNVGDTKGPNEAIACYGWGWHSETAIHILRLLAAGIFDKYPQLNIIIGHMGEMLPMMWERSNRVFQPGNNGKNQRTLIETFRKQLYITTSGIFTQPPLQIAIDTIGIDNILFSIDYPFSSNQMGIDFLTKAALPAEQLAKMAHGNADRILKF | Yes |
| 15 (protein, listed as Metarhizium anisopliae) MAQEIAKSHETSTRFAGFAVLPMRDPEAAAKELERAVKKLGFVGALVDHKTAHGNGFCEGNEYDVLWRKAEQLAVPIYLHPSWPTEKQFQQAYAGNYSPTAAGTIGGAMFNWHSEVGHHVLRLYAAGVFDKFPKLKIIIGHFGEMIPYMLDRIREQDHRLGKTGRTFSEVYDENIWITTSGVWSLDPMRCILANTKIDHILYSVDYPFTMNERGLEWFQELEKSGLLSEEDLALIAYKNCEKLLGVKAPTQD | Low |
| 52 (protein, listed as Streptomyces sp.) MAKIIALEEHFSDPAVAKAGAARAQALSPGFAASYSPASGLPYSPSPEVLENLAEKRLADMDAGGITMQVLSGLSAQTVPADVAPALVAGSNDKAAAAVRAHPDRFAAFAALPTAAPEAAVAELDRSVNELGFVGTLIMGRTEGEFLDAPRFEPILARAAALKVPVFLHPGVPPREITDSNYAAGLPTGIGTRLQTAAWGWHQETAVHFLHLVHSGVLDRYPDLQFILGHWGETIPFYLDRVDEALPQRATGLDRSFHEYFRENVYLAPSGMWSQAQLRFCLETFPLERIVFAVDYPFIGNEGAVPFLEKAELPEADKRKIAHENAERLLGL | High |
